Tested on: VDR homodimer (NR concentration 270 nM)
Assay: PBM binding z-score (relative to random genomic background probes); higher = stronger binding; sequences stand for … in GC…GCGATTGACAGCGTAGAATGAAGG
Mark 1 (yes) for reported PBM binding z-score of 1 or greater; mark 0 (no) for anything smaller.

Test whether the sequence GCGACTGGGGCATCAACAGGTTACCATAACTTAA records PBM binding z-score of 1 or higher.
0 (no)

Is reported PBM binding z-score greater than or equal to 1 here: GCTGCTAGATCAACTGATGGTCAGCTAAAGCTCG
0 (no)

Is the recorded value of PBM binding z-score equal to or greater than 1 for this sequence? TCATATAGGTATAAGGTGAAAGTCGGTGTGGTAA
0 (no)

Decide: PBM binding z-score of TCTAGATGGTCAAAGGTCACACACTCGAAATGCG >= 1?
1 (yes)

Check the entry TCTAGCAGGCCAGAGGGTCACTCAGGAGGTACGG : does PBM binding z-score equal or exceed 1?
0 (no)

Is PBM binding z-score for AATCCAGGGTCACTAGGCCAGAGTAGGTACGAAT at or above 1?
1 (yes)

Quick check, PBM binding z-score >= 1? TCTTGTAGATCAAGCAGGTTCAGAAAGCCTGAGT
1 (yes)

Would you say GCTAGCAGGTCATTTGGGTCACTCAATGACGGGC shows PBM binding z-score at minimum 1?
1 (yes)

====

Tested on: VDR:RXRa (NR concentration 270 nM, RXRa partner concentration 90 nM)
Test: PBM binding z-score (relative to random genomic background probes); higher = stronger binding; sequences stand for … in GC…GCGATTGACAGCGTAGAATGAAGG
Decide using PBM binding z-score: a value greater than or equal to 3 is met, a smaller one is not met.

Reference set (3 entries):
sequence_record=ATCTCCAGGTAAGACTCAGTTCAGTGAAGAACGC label_value="not met"
sequence_record=GCGACTGGGGCATCGGCAGGTTACCATAACTTAA label_value="not met"
sequence_record=CAAGCTAGGTCACAGAGGTCAAAGTCCGTGCGTA label_value=met

Could you please find out whether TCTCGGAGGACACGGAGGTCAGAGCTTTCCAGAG has PBM binding z-score that meets 3 or exceeds it?
met

Dear colleague, could you confirm whether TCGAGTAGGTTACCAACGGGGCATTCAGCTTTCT has PBM binding z-score at or above 3?
not met

Please indicate if the recorded PBM binding z-score for TCTAGTTGGTCACGGAGGTCACGCACGACGGGTA meets or exceeds 3.
met

====

Test system: PPARg:RXRa 270nM:90nM, anti-RXR (NR concentration 270 nM, RXRa partner concentration 90 nM)
Assay: PBM binding z-score (relative to random genomic background probes); higher = stronger binding; sequences stand for … in GC…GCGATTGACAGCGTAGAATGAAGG
Please use label 1 whenever PBM binding z-score is not below 1, and label 0 whenever it is.

sequence_record=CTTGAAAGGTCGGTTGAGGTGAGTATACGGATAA label_value="label 1"
sequence_record=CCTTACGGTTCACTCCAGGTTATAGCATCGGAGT label_value="label 0"

In plain terms: is recorded PBM binding z-score at least 1 for AGAACGAGGGCACGCTGAGGTGATAGCAGAGTAG ?
label 1

Has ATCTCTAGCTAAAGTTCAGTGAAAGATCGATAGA a recorded PBM binding z-score greater than or equal to 1?
label 1

Is reported PBM binding z-score greater than or equal to 1 here: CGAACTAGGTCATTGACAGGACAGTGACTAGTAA
label 1

Is the recorded value of PBM binding z-score equal to or greater than 1 for this sequence? TCTAGTTGGTCACTGAGGTCACACACGACGGGTA
label 1
